Just for reference, PubChem BioAssay is where these values come from.

test system: Human papillomavirus type 1a E7 protein (residues 1-88); assay: HPV1a E7 small-molecule binders, primary screen, biochemical, small-molecule microarray, residues 1-88, 635 nm (AID 1129); settings: small-molecule microarray binding, fluorescence 635 nm; higher = more signal

compound	target.or.test.system	composite z-score
C#CCCCON=C1C[C@@H](O)[C@@H](O)[C@@H]2[C@@H]3C(=O)N(CC)C(=O)[C@@H]3CC[C@H]12	Human papillomavirus type 1a E7 protein (residues 1-88)	0.286
COC(=O)[C@H](C)NC(=O)CCC1CC(OC(=O)NCc2cccc3ccccc23)CC2(CCCC(COC(=O)NCc3ccccc3)O2)O1 (some centres not stated)	Human papillomavirus type 1a E7 protein (residues 1-88)	0.976
CC(=O)OC[C@H]1O[C@H](CC=NOC(C)CN2CCCCc3nc(C)c(C)cc32)C=C[C@@H]1OC(C)=O (some centres not stated)	Human papillomavirus type 1a E7 protein (residues 1-88)	0.819
CCN1C(=O)[C@H]2[C@H]3[C@H](O)[C@H](O)CC(=NOC(C)CN4CCCc5nc(C)c(C)cc54)[C@@H]3CC[C@H]2C1=O (some centres not stated)	Human papillomavirus type 1a E7 protein (residues 1-88)	0.509
CO[C@H]1COC(=O)CCC[C@H](C)[C@H](OC)COC(=O)CC=C[C@@H]1C	Human papillomavirus type 1a E7 protein (residues 1-88)	-0.676
CO[C@@H](C(C)C)[C@@H](C)C1OC(=O)CC1O (some centres not stated)	Human papillomavirus type 1a E7 protein (residues 1-88)	-0.579
CC(CCN1CCCc2nc(C)c(C)cc21)=NO[C@@H](C)c1cn([C@H](CO)Cc2ccccc2)nn1	Human papillomavirus type 1a E7 protein (residues 1-88)	0.0974
CC(CCN1CCc2nc(-c3ccccc3)c(-c3ccccc3)cc2C1)=NO[C@H](C)c1cn([C@H](CO)Cc2ccccc2)nn1	Human papillomavirus type 1a E7 protein (residues 1-88)	0.137
COc1ccc(COC(=O)NN=C2C[C@@H](O)[C@@H](O)[C@@H]3[C@@H]4C(=O)N(C5CCCCC5)C(=O)[C@@H]4CC[C@@H]23)cc1	Human papillomavirus type 1a E7 protein (residues 1-88)	-0.0517
CC(CCN1CCCc2nc(C)c(C)cc21)=NOC[C@@H](O)COCc1ccco1	Human papillomavirus type 1a E7 protein (residues 1-88)	-2.13
O=C1C=C[C@@H](O)[C@@H]2[C@@H]3C(=O)N(Cc4ccccc4)C(=O)[C@@H]3CC[C@@H]12	Human papillomavirus type 1a E7 protein (residues 1-88)	0.673
CC(C)(C)N1C(=O)[C@H]2[C@H]3[C@H](O)[C@H](O)CC(=NOC[C@@H](O)COCc4ccco4)[C@@H]3CC[C@H]2C1=O	Human papillomavirus type 1a E7 protein (residues 1-88)	-0.451
C[C@H]1CC[C@H]2C(=O)N[C@H](Cc3ccccc3)C(=O)N2[C@@H]1c1ccccc1	Human papillomavirus type 1a E7 protein (residues 1-88)	-0.138
COC(=O)CC=C[C@@H](C)[C@@H](C=NOC[C@@H](O)COCc1ccco1)OC	Human papillomavirus type 1a E7 protein (residues 1-88)	-0.464
CN1CCc2nc(-c3ccccc3)c(-c3ccccc3)cc2C1	Human papillomavirus type 1a E7 protein (residues 1-88)	0.26
C#CCCCON=C1C[C@@H](O)[C@@H](O)[C@@H]2[C@@H]3C(=O)N(C4CCCCC4)C(=O)[C@@H]3CC[C@@H]12	Human papillomavirus type 1a E7 protein (residues 1-88)	0.256
CC(CCN1CCCc2nc(C)c(C)cc21)=NOC[C@@H](C)[C@H](OCc1ccccc1)C(C)C	Human papillomavirus type 1a E7 protein (residues 1-88)	-0.703
COc1ccc(COC(=O)NN=C2C[C@@H](O)[C@@H](O)[C@@H]3[C@@H]4C(=O)N(Cc5ccccc5)C(=O)[C@@H]4CC[C@@H]23)cc1	Human papillomavirus type 1a E7 protein (residues 1-88)	0.343
C#CCCCON=C1[C@H]2CCn3c(=O)n([C@@H](CC)c4ccccc4)c(=O)n3[C@H]2[C@H](O)[C@@H]2O[C@H]12	Human papillomavirus type 1a E7 protein (residues 1-88)	-0.256
CC(C)(C)N1C(=O)[C@H]2[C@H]3[C@H](O)[C@H](O)CC(=NOC[C@@H](O)COCc4ccco4)[C@H]3CC[C@H]2C1=O	Human papillomavirus type 1a E7 protein (residues 1-88)	0.237
C#CCCCON=C1C[C@@H](O)[C@@H](O)[C@@H]2[C@@H]3C(=O)N(C[C@@H]4CCCO4)C(=O)[C@@H]3CC[C@@H]12	Human papillomavirus type 1a E7 protein (residues 1-88)	0.439
CCOC(=O)[C@H](Cc1ccccc1)NC(=O)CCC1CC(OC(=O)NCc2ccc3c(c2)OCO3)CC2(CCCC(COC(=O)NCCOC)O2)O1 (some centres not stated)	Human papillomavirus type 1a E7 protein (residues 1-88)	1.14
CO[C@H]1COC(=O)[C@H](CCSC)NC(=O)CC=C[C@@H](C)[C@H](OC)COC(=O)[C@@H](OCc2ccccc2)C=C[C@@H]1C	Human papillomavirus type 1a E7 protein (residues 1-88)	0.116
O=C1C[C@H](c2ccccc2)[C@H](c2ccc(Br)cc2)O1	Human papillomavirus type 1a E7 protein (residues 1-88)	-0.374
COC(=O)[C@H](C)NC(=O)CCC1CC(OC(=O)NCCc2ccc(F)cc2)CC2(CCCC(COC(=O)NCc3ccccc3)O2)O1 (some centres not stated)	Human papillomavirus type 1a E7 protein (residues 1-88)	0.775
C[C@@H]1CC[C@H]2C(=O)OC(Cc3ccccc3)CN2[C@H]1c1ccc(Br)cc1 (some centres not stated)	Human papillomavirus type 1a E7 protein (residues 1-88)	0.238
O=C(NN=C1C[C@@H](O)[C@@H](O)[C@@H]2[C@@H]3C(=O)N(Cc4ccc5c(c4)OCO5)C(=O)[C@@H]3CC[C@@H]12)OCc1ccccc1	Human papillomavirus type 1a E7 protein (residues 1-88)	0.0191
CC(CCC(=O)OC[C@H]1O[C@H](C#Cc2ccccc2)C=C[C@@H]1Oc1ccc(C)cc1)=NOC(C)CN1CCCCc2nc(C)c(C)cc21 (some centres not stated)	Human papillomavirus type 1a E7 protein (residues 1-88)	0.203
O=C1C=C[C@@H](O)[C@@H]2[C@@H]3C(=O)N(C4CCCCC4)C(=O)[C@@H]3CC[C@@H]12	Human papillomavirus type 1a E7 protein (residues 1-88)	0.55
CO[C@H]1COC(=O)CC=C[C@@H](C)COC(=O)[C@H]2CCCN2C(=O)CC=C[C@H]1C	Human papillomavirus type 1a E7 protein (residues 1-88)	-1.54
O=C(NN=C1C[C@@H](O)[C@@H](O)[C@@H]2[C@@H]3C(=O)N(c4ccc(F)cc4F)C(=O)[C@@H]3CC[C@H]12)OCc1ccccc1	Human papillomavirus type 1a E7 protein (residues 1-88)	0.76
Cc1ccc2[nH]c3nc(CCCn4ccnc4-c4ccccc4)nnc3c2c1	Human papillomavirus type 1a E7 protein (residues 1-88)	1.08
